# test.description: Solid form stability study of salts and/or co-crystals at 25° C./60% RH and 40° C./75% RH
# Assay type: physicochemical
# conditions.used: 1 week, 40° C./75% RH
Let's look at some compounds and their measured Purity vs. initial (%).
Kindly provide the numeric value in % only, without the unit symbol.

Guide cases for Purity vs. initial (%), answers given:
>  <compound>
C[C@H](O)C(=O)C1=Nc2c(nc(N)[nH]c2=O)NC1 [Phosphate, sepiapterin]

>  <unit.label>
%

>  <reported.value>
99.1

$$$$
>  <compound>
C[C@H](O)C(=O)C1=Nc2c(nc(N)[nH]c2=O)NC1 [Glycolate, sepiapterin]

>  <unit.label>
%

>  <reported.value>
99.3

$$$$
>  <compound>
C[C@H](O)C(=O)C1=Nc2c(nc(N)[nH]c2=O)NC1 [Malonate, sepiapterin]

>  <unit.label>
%

>  <reported.value>
99.7

$$$$
>  <compound>
C[C@H](O)C(=O)C1=Nc2c(nc(N)[nH]c2=O)NC1 [Sulfate, sepiapterin]

>  <unit.label>
%

>  <reported.value>
91.9

$$$$
>  <compound>
C[C@H](O)C(=O)C1=Nc2c(nc(N)[nH]c2=O)NC1 [L-Tartrate, sepiapterin]

>  <unit.label>
%

>  <reported.value>
99.3

$$$$
>  <compound>
C[C@H](O)C(=O)C1=Nc2c(nc(N)[nH]c2=O)NC1 [Methanesulfonate, sepiapterin]

>  <unit.label>
%

>  <reported.value>
97.3

$$$$
>  <compound>
C[C@H](O)C(=O)C1=Nc2c(nc(N)[nH]c2=O)NC1 [Nicotinate, sepiapterin]

>  <unit.label>
%

>  <reported.value>
100.2

$$$$

Then this compound:
Need Purity vs. initial (%), item C[C@H](O)C(=O)C1=Nc2c(nc(N)[nH]c2=O)NC1 [Benzenesulfonate, sepiapterin]
91.6

----------
# test.description: Solid form stability study of salts and/or co-crystals at 25° C./60% RH and 40° C./75% RH
# Assay type: physicochemical
# conditions.used: 2 weeks, 25° C./60% RH
metric.name: Purity (Area %)
Unit Area % implied. Number only.

>  <molecule>
C[C@H](O)C(=O)C1=Nc2c(nc(N)[nH]c2=O)NC1 [Sulfate, sepiapterin]

>  <Purity (Area %)>
93.46

$$$$

Quick one: Purity (Area %) for C[C@H](O)C(=O)C1=Nc2c(nc(N)[nH]c2=O)NC1 [Toluenesulfonate, sepiapterin] ?
91.40

// Purity (Area %) lookup, key: C[C@H](O)C(=O)C1=Nc2c(nc(N)[nH]c2=O)NC1 [Phosphate, sepiapterin]
95.87

So what's the measured Purity (Area %) for this one? C[C@H](O)C(=O)C1=Nc2c(nc(N)[nH]c2=O)NC1 [Benzenesulfonate, sepiapterin]
86.37

Tell me the measured Purity (Area %) of C[C@H](O)C(=O)C1=Nc2c(nc(N)[nH]c2=O)NC1 [Malonate, sepiapterin] , please.
99.23

Entry under review: C[C@H](O)C(=O)C1=Nc2c(nc(N)[nH]c2=O)NC1 [Nicotinate, sepiapterin] . Reported Purity (Area %)?
97.45

Field request: Purity (Area %) | item: C[C@H](O)C(=O)C1=Nc2c(nc(N)[nH]c2=O)NC1 [Fumarate, sepiapterin]
99.25

Query (molecule): C[C@H](O)C(=O)C1=Nc2c(nc(N)[nH]c2=O)NC1 [Methanesulfonate, sepiapterin] ; field requested: Purity (Area %)
91.95

----------
# test.description: Solid form stability study of salts and/or co-crystals at 25° C./60% RH and 40° C./75% RH
# Format: physicochemical
# conditions.used: Initial
# Method: The stability of the prepared salts and/or co-crystals was analyzed after 1 and 2 weeks at 25° C. and 60% relative humidity and 40° C. and 75% relative humidity. […] None of the phosphate, tartrate, or nicotinate salts and/or co-crystals underwent a form change during the stability testing, and each of them retained greater than 97% purity over the two weeks of the study. In fact, both the tartrate and nicotinate both retained greater than 99% purity.
Measured Purity (Area %) of individual entries
Number only, in Area %; omit the unit.

Take a look at these entries with their results.
>  <compound>
C[C@H](O)C(=O)C1=Nc2c(nc(N)[nH]c2=O)NC1 [Glycolate, sepiapterin]

>  <unit.label>
Area %

>  <reported.value>
99.19

$$$$
>  <compound>
C[C@H](O)C(=O)C1=Nc2c(nc(N)[nH]c2=O)NC1 [Sulfate, sepiapterin]

>  <unit.label>
Area %

>  <reported.value>
97.33

$$$$
>  <compound>
C[C@H](O)C(=O)C1=Nc2c(nc(N)[nH]c2=O)NC1 [Gentisate, sepiapterin]

>  <unit.label>
Area %

>  <reported.value>
94.35

$$$$
>  <compound>
C[C@H](O)C(=O)C1=Nc2c(nc(N)[nH]c2=O)NC1 [Phosphate, sepiapterin]

>  <unit.label>
Area %

>  <reported.value>
96.75

$$$$
>  <compound>
C[C@H](O)C(=O)C1=Nc2c(nc(N)[nH]c2=O)NC1 [Fumarate, sepiapterin]

>  <unit.label>
Area %

>  <reported.value>
99.46

$$$$
>  <compound>
C[C@H](O)C(=O)C1=Nc2c(nc(N)[nH]c2=O)NC1 [Methanesulfonate, sepiapterin]

>  <unit.label>
Area %

>  <reported.value>
91.14

$$$$

What measured Purity (Area %) goes with C[C@H](O)C(=O)C1=Nc2c(nc(N)[nH]c2=O)NC1 [Toluenesulfonate, sepiapterin] ?
96.84

State the recorded Purity (Area %) for this entry: C[C@H](O)C(=O)C1=Nc2c(nc(N)[nH]c2=O)NC1 [HCI, sepiapterin]
93.94

----------
# test.description: Solid form stability study of salts and/or co-crystals at 25° C./60% RH and 40° C./75% RH
# Assay type: physicochemical
# conditions.used: 2 weeks, 25° C./60% RH
metric.name: Purity (Area %)
Response body: numeric value in Area %, unit text excluded.

Solved cases (3 shown):
>  <molecule>
C[C@H](O)C(=O)C1=Nc2c(nc(N)[nH]c2=O)NC1 [Glycolate, sepiapterin]

>  <Purity (Area %)>
98.86

$$$$
>  <molecule>
C[C@H](O)C(=O)C1=Nc2c(nc(N)[nH]c2=O)NC1 [L-Tartrate, sepiapterin]

>  <Purity (Area %)>
99.39

$$$$
>  <molecule>
C[C@H](O)C(=O)C1=Nc2c(nc(N)[nH]c2=O)NC1 [Gentisate, sepiapterin]

>  <Purity (Area %)>
97.00

$$$$

What value of Purity (Area %) has been recorded for this entry: C[C@H](O)C(=O)C1=Nc2c(nc(N)[nH]c2=O)NC1 [HCI, sepiapterin]
91.84

----------
# test.description: Solid form stability study of salts and/or co-crystals at 25° C./60% RH and 40° C./75% RH
# Assay type: physicochemical
# conditions.used: 1 week, 40° C./75% RH
Lab note: cut-off is 90 Area %. Strictly less in Purity (Area %) is Condition met. Exactly 90 Area % or more is Condition not met.

Worked examples, 3 compounds total:
>  <compound>
C[C@H](O)C(=O)C1=Nc2c(nc(N)[nH]c2=O)NC1 [Benzenesulfonate, sepiapterin]

>  <group.label>
Condition met

$$$$
>  <compound>
C[C@H](O)C(=O)C1=Nc2c(nc(N)[nH]c2=O)NC1 [Phosphate, sepiapterin]

>  <group.label>
Condition not met

$$$$
>  <compound>
C[C@H](O)C(=O)C1=Nc2c(nc(N)[nH]c2=O)NC1 [Malonate, sepiapterin]

>  <group.label>
Condition not met

$$$$

API: query returns whether the compound falls strictly under 90 Area % in Purity (Area %). Query: C[C@H](O)C(=O)C1=Nc2c(nc(N)[nH]c2=O)NC1 [Glycolate, sepiapterin]
Condition not met

Does C[C@H](O)C(=O)C1=Nc2c(nc(N)[nH]c2=O)NC1 [Fumarate, sepiapterin] have Purity (Area %) strictly under 90 Area %?
Condition not met

----------
# test.description: Solid form stability study of salts and/or co-crystals at 25° C./60% RH and 40° C./75% RH
# Type: physicochemical
# conditions.used: Initial
metric.name: Purity (Area %)
Answer with a number only, understood to be in Area %.

Completed entries (count: 3):
>  <compound>
C[C@H](O)C(=O)C1=Nc2c(nc(N)[nH]c2=O)NC1 [L-Tartrate, sepiapterin]

>  <unit.label>
Area %

>  <Purity (Area %)>
99.75

$$$$
>  <compound>
C[C@H](O)C(=O)C1=Nc2c(nc(N)[nH]c2=O)NC1 [Nicotinate, sepiapterin]

>  <unit.label>
Area %

>  <Purity (Area %)>
97.16

$$$$
>  <compound>
C[C@H](O)C(=O)C1=Nc2c(nc(N)[nH]c2=O)NC1 [Benzenesulfonate, sepiapterin]

>  <unit.label>
Area %

>  <Purity (Area %)>
90.20

$$$$

In the following, a different compound is considered.
Which Purity (Area %) reading was recorded for the compound C[C@H](O)C(=O)C1=Nc2c(nc(N)[nH]c2=O)NC1 [Malonate, sepiapterin] ?
99.45
